- testedTarget: Cellular tumor antigen p53 (Homo sapiens)
- protocolText: TOX21_p53_BLA_p4_ratio: Tox21 HCT-116 p53 Agonism Beta-lactamase Assay, Ratio, Phase 4 (AID 2283601)
Records with an inconclusive call do not appear. The source made the active and inactive calls. Rule for the calls: active = hit-call score of the fitted dose curve at least 0.9, where 1 is the maximum; inconclusive = response in the unintended direction; inactive = score below 0.9.
Permitted responses: label 1 for active, label 0 for inactive

For this molecule, state the assay outcome: COC1=CC(=O)O[C@@H](/C=C/c2ccccc2)C1 label 0

For this molecule, state the assay outcome: N#CCCSCCC#N label 0

For this molecule, state the assay outcome: Cc1ccccc1 label 0

For this molecule, state the assay outcome: C[C@]12CC[C@H](OS(=O)(=O)O)CC1=CC[C@@H]1[C@@H]2CC[C@]2(C)C(=O)CC[C@@H]12 label 0

For this molecule, state the assay outcome: N#CCc1ccccc1 label 0

For this molecule, state the assay outcome: CN(C)CCc1ccc(O)cc1 label 0

For this molecule, state the assay outcome: O=C(O)C(Cl)Br (stereo not given) label 0

For this molecule, state the assay outcome: Clc1ccc(CO/N=C(\Cn2ccnc2)c2ccc(Cl)cc2Cl)c(Cl)c1 label 1

For this molecule, state the assay outcome: Oc1ccc(C2(c3ccc(O)cc3)CCCCC2)cc1 label 1

For this molecule, state the assay outcome: CC=CCC#N label 0

For this molecule, state the assay outcome: CC1N=C(N)OC1c1ccccc1 (stereo not given) label 0

For this molecule, state the assay outcome: CCCC[n+]1cccc(C)c1 label 0

For this molecule, state the assay outcome: CN1CCN(C(=O)O[C@H]2c3nccnc3C(=O)N2c2ccc(Cl)cn2)CC1 label 0

For this molecule, state the assay outcome: CCCCOC(=O)CCC(=O)OCCCC label 0

For this molecule, state the assay outcome: ClC(Cl)(Cl)Cl label 0

---

- testedTarget: X-box-binding protein 1 (Homo sapiens) (UniProt P17861)
- Sequence (P17861 whole entry, looked up): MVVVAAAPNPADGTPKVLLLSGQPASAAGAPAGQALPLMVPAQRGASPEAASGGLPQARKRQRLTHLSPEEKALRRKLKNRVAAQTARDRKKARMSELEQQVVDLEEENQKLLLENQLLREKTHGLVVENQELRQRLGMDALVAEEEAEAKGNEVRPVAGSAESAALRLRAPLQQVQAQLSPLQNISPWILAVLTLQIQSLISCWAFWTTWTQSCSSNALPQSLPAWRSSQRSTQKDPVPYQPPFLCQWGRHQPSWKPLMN
- protocolText: ATG_Xbp1_CIS: Attagene CIS-FACTORIAL HepG2 Assay for human X-box Binding Protein 1 (XBP1) (AID 2282972)
- recordedConditions: HepG2 XBP1 cis-element reporter, Attagene multiplex; actives raise or lower the signal
The source made the active and inactive calls. Rule for the calls: active = hit-call score of the fitted dose curve at least 0.9, where 1 is the maximum; inactive = score below 0.9.
Permitted responses: active, inactive

For this compound, state the assay outcome: CCC(=O)c1ccc(Cl)cc1 inactive

For this compound, state the assay outcome: C=CCN(CC=C)C(=O)C(Cl)Cl inactive

For this compound, state the assay outcome: N#Cc1cc(I)c(O)c(I)c1 active

For this compound, state the assay outcome: Nc1ccc(-c2ccc(N)c(N)c2)cc1N inactive

For this compound, state the assay outcome: O=C(O)CCCc1ccc(N(CCCl)CCCl)cc1 inactive

For this compound, state the assay outcome: Cc1ccc(N(SC(F)(Cl)Cl)S(=O)(=O)N(C)C)cc1 active

For this compound, state the assay outcome: Cc1ncc(C[n+]2csc(CCO)c2C)c(N)n1 inactive

For this compound, state the assay outcome: O=[N+]([O-])c1cc(C(F)(F)F)c(Cl)c([N+](=O)[O-])c1Cl inactive

For this compound, state the assay outcome: CCOP(=O)(OCC)Oc1ccc([N+](=O)[O-])cc1 inactive

For this compound, state the assay outcome: C=C(Cl)CCl inactive

For this compound, state the assay outcome: Cl/C=C\CCl inactive

For this compound, state the assay outcome: ClCCCCCCCl inactive

For this compound, state the assay outcome: CC(C)C#N inactive

---

- protocolText: TOX21_p53_BLA_p2_viability: Viability Assessment in the Tox21 HCT-116 p53 Agonism Beta-lactamase Assay, Phase 2 (AID 2283591);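 note: compound exposure lasted 16 h at 37 °C; actives lower the ATP signal meaning cytotoxicity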
Records with an inconclusive call do not appear. Activity calls are given as the source filed them. How the source made its calls: active means hit-call score of the fitted dose curve at least 0.9, where 1 is the maximum; inconclusive means response in the unintended direction; inactive means score below 0.9.
Permitted responses: Yes (active), No (inactive)

For this molecule, state the assay outcome: O=[N+]([O-])O.O=[N+]([O-])O.[Cd] Yes

For this molecule, state the assay outcome: CCCCCCCCP(=O)(O)O No

For this molecule, state the assay outcome: CCCC(C)(COC(N)=O)COC(N)=O No

For this molecule, state the assay outcome: Nc1nc(N)c(N)c(N)n1 No

For this molecule, state the assay outcome: Oc1cccc[c]1[Hg][Cl] Yes

For this molecule, state the assay outcome: O=[N+]([O-])c1ccccc1-c1ccccc1 No

For this molecule, state the assay outcome: CC(=O)O[C@H]1CC[C@@]2(C)C(=CC[C@@H]3[C@@H]2CC[C@]2(C)C(=O)CC[C@@H]32)C1 No

For this molecule, state the assay outcome: O=[N+]([O-])c1ccccc1CCl No

For this molecule, state the assay outcome: ClC(Cl)(Cl)Br No

For this molecule, state the assay outcome: CC(C)(C)NCC(O)c1cc(Cl)c(N)c(Cl)c1 (stereo unspecified) No

For this molecule, state the assay outcome: CC(C)C(Nc1ccc(C(F)(F)F)cc1Cl)C(=O)OC(C#N)c1cccc(Oc2ccccc2)c1 (stereo unspecified) No

For this molecule, state the assay outcome: CC1NCCOC1c1ccccc1 (stereo unspecified) No

For this molecule, state the assay outcome: CC1(C)CC(=O)CC(C)(C)N1[O] No

For this molecule, state the assay outcome: CCN(CC)CCO[C@H]1CC[C@@]2(C)C(=CC[C@@H]3[C@@H]2CC[C@]2(C)C(=O)CC[C@@H]32)C1 No

For this molecule, state the assay outcome: CN[C@@]1(c2ccccc2Cl)CCCCC1=O No

For this molecule, state the assay outcome: CO[C@]12CC[C@@]3(C[C@@H]1[C@](C)(O)C(C)(C)C)[C@H]1Cc4ccc(O)c5c4[C@@]3(CCN1CC1CC1)[C@H]2O5 Yes

---

- protocolText: ATG_CMV_CIS: Attagene CIS-FACTORIAL HepG2 Assay for human CMV (Internal Marker) (AID 2282928);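 note: endpoint acts as a background internal control marker rather than a target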
- recordedConditions: HepG2 CMV promoter reporter, transcription factor profiling; actives raise or lower the signal
Calls of active or inactive are those of the source. The calls were made as follows: active = hit-call score of the fitted dose curve at least 0.9, where 1 is the maximum; inactive = score below 0.9.
Permitted responses: active, inactive

For this molecule, state the assay outcome: CCOC(=O)COc1ccc(Cl)cc1Cl inactive

For this molecule, state the assay outcome: N#Cc1cccc(C#N)c1 inactive

For this molecule, state the assay outcome: CC(C)c1ccc(O)cc1 active

For this molecule, state the assay outcome: O=[N+]([O-])c1ccc(Cl)cc1 inactive

For this molecule, state the assay outcome: Nc1ccccc1C(=O)Oc1ccc2ccccc2c1 active

For this molecule, state the assay outcome: CC(C)(c1cc(Cl)c(O)c(Cl)c1)c1cc(Cl)c(O)c(Cl)c1 active

For this molecule, state the assay outcome: CCN(CC)C(=S)S active

For this molecule, state the assay outcome: C[N+](=O)[O-] inactive

For this molecule, state the assay outcome: COc1ccc(CO)cc1 inactive

For this molecule, state the assay outcome: C[C@]12CCC(=O)C(O)=C1CC[C@@H]1[C@@H]2CC[C@]2(C)C(=O)CC[C@@H]12 inactive

For this molecule, state the assay outcome: O=C(CCN1CC1)OCC(CO)(COC(=O)CCN1CC1)COC(=O)CCN1CC1 inactive

For this molecule, state the assay outcome: [Cl-].[Cl-].[Cl-].[Yb+3] inactive

For this molecule, state the assay outcome: O=[N+]([O-])C=Cc1ccccc1 inactive

For this molecule, state the assay outcome: CCCCNP(N)(N)=S inactive

For this molecule, state the assay outcome: C#CC1(O)CCCCC1 inactive

For this molecule, state the assay outcome: BrCBr inactive

For this molecule, state the assay outcome: CCOC(=O)C1OC1(C)c1ccccc1 (stereo not given) inactive

For this molecule, state the assay outcome: ClCCCCCCCl inactive

For this molecule, state the assay outcome: C=CC(=O)OC inactive

For this molecule, state the assay outcome: CC1(C)C(=O)NC(=O)NC1=O inactive

For this molecule, state the assay outcome: O=[N+]([O-])c1cc([N+](=O)[O-])c2ccccc2c1 active

For this molecule, state the assay outcome: O=C(O)COc1ccccc1 inactive

For this molecule, state the assay outcome: Cl/C=C\CCl inactive

For this molecule, state the assay outcome: CC1(C)[C@H](C(=O)O[C@H](C#N)c2cccc(Oc3ccccc3)c2)[C@@H]1C=C(Br)Br inactive

For this molecule, state the assay outcome: Nc1ccccc1 inactive

For this molecule, state the assay outcome: CC(=O)C=Cc1ccccc1 active

For this molecule, state the assay outcome: O=[N+]([O-])O.O=[N+]([O-])O.[Cd] active

For this molecule, state the assay outcome: O=C(O)c1cc[c]([Hg][Cl])cc1 inactive

For this molecule, state the assay outcome: CCC(C)(C)O inactive

For this molecule, state the assay outcome: O=c1c2ccccc2c(=O)c2c1cc(Cl)c1[nH]c3c([nH]c12)c(Cl)cc1c(=O)c2ccccc2c(=O)c13 inactive

For this molecule, state the assay outcome: CCCCOC(=O)CCC(=O)OCCCC inactive

For this molecule, state the assay outcome: N#CCCCCC#N inactive

For this molecule, state the assay outcome: Nc1cc(Cl)cc(Cl)c1 inactive

For this molecule, state the assay outcome: CCC(Br)(CC)C(=O)NC(N)=O inactive

For this molecule, state the assay outcome: C=C(Cl)Cl inactive

For this molecule, state the assay outcome: Cc1cc(C)c(C2=C(OC(=O)CC(C)(C)C)C3(CCCC3)OC2=O)c(C)c1 inactive

For this molecule, state the assay outcome: [CH3][Sn]([CH3])([Cl])[Cl] inactive

For this molecule, state the assay outcome: ClCC(Cl)Cl inactive

For this molecule, state the assay outcome: C=Cc1cccc(CCl)c1 inactive

For this molecule, state the assay outcome: C=COCCCl inactive

For this molecule, state the assay outcome: Cc1ccccc1CCl inactive

For this molecule, state the assay outcome: O=C1C(Cl)=C(Cl)C(=O)C(Cl)=C1Cl inactive

For this molecule, state the assay outcome: CC(C)C#N inactive

For this molecule, state the assay outcome: Cc1ncc(C[n+]2csc(CCO)c2C)c(N)n1 inactive

For this molecule, state the assay outcome: COc1ncc(F)c2nc(S(=O)(=O)Nc3c(F)cccc3F)nn12 inactive
